experimental details: Toxicity liver stage against HepG2, at 10uM
Assay type: cell-based
Set-up: test concentration 10 uM, cell line HepG2-A16-CD81EGFP
experimental setup: human, HepG2-A16-CD81EGFP cells; read-out: INHIBITION
Provide the recorded cytotoxicity at 10 µM for the entries that follow.
Write it as a number; the unit % goes unstated.

cytotoxicity at 10 µM recorded for this compound, Cc1ccc(-c2nc(CN3CCn4c(nnc4C4CC4)C3)co2)cc1 , is 5.17

Briefly, cytotoxicity at 10 µM measured for COCCNC(=O)CCc1c(C)nn(-c2nc(C)c(C)c(=O)[nH]2)c1C : 11.1

get_value(item= CCN1CC2(CCN(CCOc3ccc(F)cc3)CC2)CC1=O , readout=cytotoxicity at 10 µM) returns 8.12

The recorded cytotoxicity at 10 µM for entry CN(C)CCC1CCCCN1Cc1cnc(-c2ccccn2)nc1 (stereo unspecified) equals 3.74

Short answer for CCCc1nc(CN(CC)C(=O)c2ccc3ncsc3c2)no1 : cytotoxicity at 10 µM was 9.65

Consider CC(C)[C@H](NC(=O)NC1CCS(=O)(=O)C1)C(=O)NCc1ccccc1 (stereo partly specified) . Its measured cytotoxicity at 10 µM is 7.39

---

experimental details: Toxicity liver stage against HepG2, at 10uM
Format: cell-based
Design: test concentration 10 uM, cell line HepG2-A16-CD81EGFP
experimental setup: human, HepG2-A16-CD81EGFP cells; read-out: INHIBITION
Please provide measured cytotoxicity at 10 µM for the entries that follow.
Write the number in % without appending the unit.

Quick note, cytotoxicity at 10 µM for O=C(NCCn1nc2ccccn2c1=O)c1scnc1Cl landed at -13.9

# cytotoxicity at 10 µM (compound: CC(Nc1nc(-c2ccccc2)nc2c1CCNCC2)c1nccs1 (stereo unspecified) ) is 2.49

Form field cytotoxicity at 10 µM, entry Cc1noc(C)c1CC(=O)OCC(=O)N1CCc2sccc2C1 : -0.361

// cytotoxicity at 10 µM lookup, compound = COc1ncccc1CNC(=O)N1CCC(CNC(C)=O)CC1 , result: 3.4

The compound listed as CN1Cc2c(C(=O)NC3CCCCC3)ncn2-c2ccccc2S1(=O)=O shows cytotoxicity at 10 µM equal to -153

cytotoxicity at 10 µM measured on CCc1nnc(CN(CC)C(=O)C(C)n2ccnc2C(C)C)o1 (stereo unspecified) = 6.23

Looking up Cc1ccc2nc(CN3CCC(O)(CN4CCCC4)CC3)cc(O)c2c1 , I see its cytotoxicity at 10 µM listed as -51.9

The compound COc1ccc(CNC(=O)NC2CCN(C)CC2)c(C(F)(F)F)c1 showed cytotoxicity at 10 µM equal to -12.2

GET /value?item= c1cn(-c2ccc(CN3CCCC3)cc2)c(-c2cc3n(n2)CCNC3)n1 &field=cytotoxicity at 10 µM returns -14.3

The compound identified as Cc1nc(N2CCC(C(O)c3nccn3C)CC2)c2nc(C)oc2n1 (stereo unspecified) registered its cytotoxicity at 10 µM at -2.22

cytotoxicity at 10 µM measured on CNc1oc(-c2cc(S(=O)(=O)N3CCCC3)c(C)o2)nc1C#N = 5.08

---

experimental details: Toxicity liver stage against HepG2, at 10uM
Assay type: cell-based
Set-up: test concentration 10 uM, cell line HepG2-A16-CD81EGFP
experimental setup: human, HepG2-A16-CD81EGFP cells; read-out: INHIBITION
result type: cytotoxicity at 10 µM (%)
Provide only the numeric value, understood in %.

Per the record, CC(C)c1nc(C2CCCN2CCS(=O)(=O)c2ccccc2)no1 (centres undefined) has cytotoxicity at 10 µM of -5.28

// recorded cytotoxicity at 10 µM for O=C(NC[C@]12COC[C@H]1CN(Cc1nccs1)C2)c1cscn1 : -1.11

So for Cn1nccc1CCNC(=O)[C@H]1CNC[C@H](C(=O)N2CCCC2)C1 , the logged cytotoxicity at 10 µM turned out to be -133

For this compound ( CCOC(=O)c1sc(NC(=O)c2cc(=O)c(OC)c[nH]2)nc1C ), measured cytotoxicity at 10 µM is -57.1

The reported value for COCCC1CCCCN1Cc1nc(Cc2cccc(F)c2)no1 (centres undefined) in terms of cytotoxicity at 10 µM is -142

# cytotoxicity at 10 µM (compound: CN1CCN2CCN(Cc3cc(=O)n4c5c(cccc35)CCC4)CC2C1 (centres undefined) ) is 9.05

get_value(item= O=S(=O)(NCc1ccccc1)N(Cc1ccccn1)CC1CCCO1 (centres undefined) , readout=cytotoxicity at 10 µM) returns 1.62

Cn1nc(C2CCCC2)c(-c2ccc3c(c2)OCO3)c1N has a reported cytotoxicity at 10 µM of -51.5

According to the records, this compound CCN1CC(CN(C)Cc2nc(-c3ccc(F)cc3F)oc2C)CC1=O (centres undefined) displays cytotoxicity at 10 µM of -6.64

Query O=C1CC(NS(=O)(=O)c2cccc(F)c2)CN1 (centres undefined) yields cytotoxicity at 10 µM of -5.89

Note to self: cytotoxicity at 10 µM recorded for CN1CCc2c(CNc3ncccn3)n[nH]c2C1 was -3.21

According to the records, this compound Cc1cccc(C(=O)N2CCC3(CC(C(=O)N(C)C(C)C)=NO3)C2)c1 (centres undefined) displays cytotoxicity at 10 µM of -127

Field cytotoxicity at 10 µM (entry COc1ccc(F)cc1C(C)NC(=O)c1nnc(C)s1 (centres undefined) ) reads -0.213

Quick note, cytotoxicity at 10 µM for Cc1nnc(C(C)Nc2ccc(OCCc3ccccc3)nc2)o1 (centres undefined) landed at -4.08

Per the records, this compound ( Cc1n[nH]cc1CNc1ccc2c(c1)N(C(=O)OC(C)(C)C)CCC2 ) has cytotoxicity at 10 µM equal to -1.97

Sure, the documented cytotoxicity at 10 µM for CC(C)CCn1cc(C(C(=O)O)N2CCCN(C3CCCC3)CC2)cn1 (centres undefined) is -5.84

Lookup result for NC(=O)c1c[nH]nc1NC(=O)c1cccc(Cl)c1 ; measured cytotoxicity at 10 µM: -2.39

The compound identified as Cc1nnc(NC(=O)CN2CCc3nn(C(C)C)c(=O)cc3C2)s1 registered its cytotoxicity at 10 µM at -18.9

Data point: CCN1CCC2(CCC1=O)CN(c1nccc(N)n1)CCN2C (centres undefined) ; cytotoxicity at 10 µM = 0.562

In plain terms, NS(=O)(=O)c1cccc(CNc2nccc(C(F)(F)F)n2)c1 has a documented cytotoxicity at 10 µM of -11.1

Query CCOc1ccc(N2CCCN=C2NC(=O)c2ccc(Cl)cc2)cc1 yields cytotoxicity at 10 µM of 8.1

Please fill in: cytotoxicity at 10 µM reported for CC(C)C1CCCN1CC(=O)NCc1ccc(OCC(N)=O)cc1 (centres undefined) = 7.01

Query COCCn1cncc1CN1CCC(C(C)=O)(c2ccccc2)CC1 yields cytotoxicity at 10 µM of 1.92

compound O=C(NCCCNc1ccc(C(F)(F)F)cn1)c1ccccc1 , cytotoxicity at 10 µM observed: -6.07

---

I'd appreciate it if you could supply cytotoxicity at 10 µM values for the items below.
experimental details: Toxicity liver stage against HepG2, at 10uM
Format: cell-based
Set-up: test concentration 10 uM, cell line HepG2-A16-CD81EGFP
experimental setup: human, HepG2-A16-CD81EGFP cells; read-out: INHIBITION
All answers are understood in %, so give the number only.

Reported cytotoxicity at 10 µM of Cc1cnn(CC2CN(Cc3nnc(C4CC4)n3C)CCO2)c1 (stereo not drawn) : -2.72

According to the records, this compound CNC(=O)CC1CCN(Cc2nc(-c3ccc(SC)cc3)oc2C)CC1 displays cytotoxicity at 10 µM of -8.97

Just so you know, measured cytotoxicity at 10 µM for NC(=O)NC(=O)Cn1ccc2sccc2c1=O came out at 0.354

The reported cytotoxicity at 10 µM of the compound CNC(=O)[C@@H]1CCO[C@@H]2CCN(Cc3ccsc3)C[C@H]21 was -78.3

Measured cytotoxicity at 10 µM, CN(C)C(=O)N1C[C@@H]2COC[C@]2(CNS(C)(=O)=O)C1 : -1.47

The compound listed as CCc1ccc(C(O)CN2CCN(c3cccc(OC)c3)CC2)cc1 (stereo not drawn) has a reported cytotoxicity at 10 µM of 11.2

Noted for CN(Cc1cccnc1)c1nc(-c2ccccn2)nc2c1CCNCC2 : its cytotoxicity at 10 µM reads 3.64

cytotoxicity at 10 µM reported for this compound Cc1ccc(CN2CCC3(CC2)C(c2ccccc2)CC(=O)N3C)o1 (stereo not drawn) : -101

The recorded cytotoxicity at 10 µM for entry CCc1nnc(C2Cc3ccccc3CN2Cc2ncc(Cl)n2C)o1 (stereo not drawn) equals 12.5

For record Cc1ccc(N2CC[C@@H]3O[C@@H](COCc4cccnc4)CC[C@@H]32)nn1 the listed cytotoxicity at 10 µM is 8.37

According to the records, this compound Cc1cc(C2CCCN(C(=O)COc3ccc(F)cc3F)C2)n[nH]1 (stereo not drawn) displays cytotoxicity at 10 µM of 5.93

Lab note: measured cytotoxicity at 10 µM of CNC(=O)c1nn(C)cc1NC(=O)C(C)n1ncc(Cl)c1C (stereo not drawn) was 8.77

cytotoxicity at 10 µM measured on O=C1NCCCC12CCN(Cc1ccc(SC3CCCCC3)o1)C2 (stereo not drawn) = -3.33

Record O[C@@H]1CC(CNCc2ccc(Cl)cc2)(COc2cccnc2)C[C@@H]1O (stereo partly drawn) . Reported cytotoxicity at 10 µM: -2.23

Reported cytotoxicity at 10 µM of CN1C(Cn2cccn2)C[C@@H]2CN(Cc3cnn(C)c3)CC[C@@H]21 (stereo partly drawn) : 3.16

The value of cytotoxicity at 10 µM measured for the compound COc1ccc(CN2CCN(c3nccnc3OC)CC2=O)cc1 turned out to be 2.82

Looking up COCCn1c(C(=O)NC(C(N)=O)C(C)C)cc2ccccc21 (stereo not drawn) , I see its cytotoxicity at 10 µM listed as 9.73

Briefly, cytotoxicity at 10 µM measured for CCc1nnc(Nc2cccc(C3CCCN(CC(C)(C)C)C3)n2)s1 (stereo not drawn) : -33.9

Sample CC(C)CN1CCC2(C=C(C(=O)NC3CC3)c3ccccc32)CC1 ; cytotoxicity at 10 µM observed: 1.11

Item: NS(=O)(=O)CCNC(=O)c1ccc(OCc2ccccc2)nc1 | cytotoxicity at 10 µM: 6.85

Note to self: cytotoxicity at 10 µM recorded for CC(C)COC(C)C(=O)NCc1ccc(Cn2ccnc2)cc1 (stereo not drawn) was -2.65

Form: compound = O=C(Nc1ccccc1)[C@H]1C[C@H]2CN(C(=O)Nc3ccccc3)C[C@@H]1O2 ; cytotoxicity at 10 µM = 2.4

Reported cytotoxicity at 10 µM for O=C(NCC1CC1)N1CCN(Cc2ccc3c(c2)OCCO3)CC1 was -4.3

These data points were gathered from ChEMBL document CHEMBL4513216.
